Exercise: for every item that follows, state its recorded pIC50.
# tested on: anti-CD28 Fab
# Sequence (VH, as listed by the source, chain 1 of 2): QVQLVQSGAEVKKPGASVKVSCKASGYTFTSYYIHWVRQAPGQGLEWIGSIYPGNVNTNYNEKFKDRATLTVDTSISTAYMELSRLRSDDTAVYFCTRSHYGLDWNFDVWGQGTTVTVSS
# Sequence (VL, as listed by the source, chain 2 of 2): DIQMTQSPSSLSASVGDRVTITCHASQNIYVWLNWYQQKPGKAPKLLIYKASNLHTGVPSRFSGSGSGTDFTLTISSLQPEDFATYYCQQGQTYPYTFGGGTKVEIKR
# assay explanation: competition ELISA, alanine scan of Peptide-44, Fab binding plate-bound CD28
No end group written: not given here.
Give bare numbers, as −log10 of the molar value.

Recorded results for 4 binders are shown here.
SCAAGAAYAWPYCL [Peptide-53] = 2.13
SCAAGASYAWPYCL (cysteine pairing not given here; also: biotinylated, site not given here, synthetic peptide) [Peptide-44] = 2.10
ACAAGASYAWPYCL [Peptide-51] = 1.68
SCAAGASYAWPACL [Peptide-57] = 1.89

-- ask Report pIC50 for SCAAGASYAWPYCA [Peptide-58] please.
-- reply 1.12

From: patent US20260274955A1
